# Tested on: LAPC4 prostate cancer cells, which express the AKT1 E17K allele
# PROTOCOL: Antiproliferative effects in LAPC4 cells (CellTiter Glo, 72 h)
# Type: cell-based
# RUN PARAMETERS: Homo sapiens, LAPC4, 72 h, read-out: LAPC4 proliferation IC50: GeoMean IC50
pIC50: −log10 of the molar value.
EXPERIMENTAL READOUT: pIC50

INSERT INTO measurements (record_smiles, observed_measurement) VALUES
  ('Nc1ncccc1-c1nc2c(-n3cccn3)cc(-n3cccn3)nc2n1-c1ccc2c(c1)CC[C@@H]2NC(=O)c1ccc(O)c(C=O)c1', '5.70 to 7.00'),
  ('C#Cc1cc(C(=O)N[C@H]2CCc3cc(-n4c(-c5cccnc5N)nc5ccc(-n6cccn6)nc54)ccc32)cc(C=O)c1O', '5.70 to 7.00'),
  ('Nc1ncccc1-c1nc2ccc(-c3ncco3)nc2n1-c1ccc2c(c1)CC[C@@H]2NC(=O)c1cc(C=O)c(O)cc1F', '7.00 to 8.00'),
  ('CC(=O)c1cc(C(=O)N[C@H]2CCc3cc(-n4c(-c5cccnc5N)nc5ccc(-n6cccn6)nc54)ccc32)cc(C=O)c1O', '5.70 to 7.00'),
  ('Nc1ncccc1-c1nc2ccc(C3CC3)nc2n1-c1ccc2c(c1)CC[C@@H]2NC(=O)c1ccc(O)c(C=O)c1', '5.70 to 7.00'),
  ('Nc1ncccc1-c1nc2ccc(-n3cc4c(n3)CNC4)nc2n1-c1ccc2c(c1)CC[C@@H]2NC(=O)c1ccc(O)c(C=O)c1', '≤ 5.70');
